Cited source for all entries: ChEMBL document CHEMBL1134384

IC50 by entry:
# system: 72 kDa type IV collagenase (Homo sapiens, UniProt P08253)
# Sequence (P08253 whole entry): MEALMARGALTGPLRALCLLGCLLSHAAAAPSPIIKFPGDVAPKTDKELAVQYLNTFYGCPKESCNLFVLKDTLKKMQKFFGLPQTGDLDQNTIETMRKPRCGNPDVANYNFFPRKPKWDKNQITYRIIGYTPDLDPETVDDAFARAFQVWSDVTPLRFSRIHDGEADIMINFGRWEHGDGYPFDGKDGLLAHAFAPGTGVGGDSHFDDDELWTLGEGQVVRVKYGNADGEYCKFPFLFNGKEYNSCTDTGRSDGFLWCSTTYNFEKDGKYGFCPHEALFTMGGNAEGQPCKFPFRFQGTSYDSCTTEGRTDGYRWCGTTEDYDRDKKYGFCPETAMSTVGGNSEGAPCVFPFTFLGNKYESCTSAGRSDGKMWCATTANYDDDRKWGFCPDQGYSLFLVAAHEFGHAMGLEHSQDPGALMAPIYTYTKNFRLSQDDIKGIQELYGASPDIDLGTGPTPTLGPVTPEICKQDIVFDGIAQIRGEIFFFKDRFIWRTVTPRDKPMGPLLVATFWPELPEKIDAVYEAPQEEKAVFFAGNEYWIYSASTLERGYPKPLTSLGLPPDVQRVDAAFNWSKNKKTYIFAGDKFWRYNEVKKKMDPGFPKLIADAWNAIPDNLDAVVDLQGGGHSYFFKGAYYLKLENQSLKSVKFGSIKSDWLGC

>  <compound>
COc1ccc(-c2ccc(S(=O)(=O)NC(C(=O)O)[C@@H](C#Cc3ccccc3)OCc3ccccc3)cc2)cc1 (stereo partly drawn)

>  <system>
72 kDa type IV collagenase (Homo sapiens, UniProt P08253)

>  <IC50>
8 nM

$$$$
>  <compound>
COc1ccc(-c2ccc(S(=O)(=O)NC(CC#Cc3ccc(N4CCOCC4)cc3)C(=O)O)cc2)cc1 (stereo not drawn)

>  <system>
72 kDa type IV collagenase (Homo sapiens, UniProt P08253)

>  <IC50>
158 nM

$$$$

Inquiry: Param readout = IC50; param system = 72 kDa type IV collagenase (Homo sapiens, UniProt P08253); param query = O=C(O)C(CC#CCOc1ccccc1)NS(=O)(=O)c1ccc(-c2ccc(Br)cc2)cc1 (stereo not drawn) ; response: value
Reply text: 23 nM

* * *

# assayComment: Half life was determined in fasted rats using cassette dosing technique.
# Type: ADME, organism-based
# condition: rat, in vivo
quantityName: half-life (min)
Number in min, nothing else.

Example molecules with recorded half-life:
>  <molecule>
COc1ccc(-c2ccc(S(=O)(=O)NC(CC#Cc3ccccc3)C(=O)O)cc2)cc1 (centres undefined)

>  <quantityName>
half-life

>  <recordedMeasurement>
102

$$$$
>  <molecule>
COc1ccc(C#Cc2ccc(S(=O)(=O)NC(CC#CCN3CCOCC3)C(=O)O)cc2)cc1 (centres undefined)

>  <quantityName>
half-life

>  <recordedMeasurement>
216

$$$$
>  <molecule>
COc1ccc(C#Cc2ccc(S(=O)(=O)NC(CC#Cc3ccccc3)C(=O)O)cc2)cc1 (centres undefined)

>  <quantityName>
half-life

>  <recordedMeasurement>
42

$$$$

Inquiry: What value of measured half-life is listed for COc1ccc(-c2ccc(S(=O)(=O)NC(CC#Cc3cccc(N4CCOCC4)c3)C(=O)O)cc2)cc1 (centres undefined) ?
Reply text: 6

* * *

# system: 72 kDa type IV collagenase (Homo sapiens)
pIC50 by entry:
Scale explanation: pIC50 corresponds to minus log10 of a concentration expressed in moles per litre.

>  <molecule>
COc1ccc(-c2ccc(S(=O)(=O)NC(CC#CCN3CCCC3)C(=O)O)cc2)cc1 (centres undefined)

>  <quantityName>
pIC50

>  <recordedMeasurement>
7.00

$$$$

Inquiry: What value of measured pIC50 is listed for COCCOc1ccc(-c2ccc(S(=O)(=O)NC(CC#Cc3ccccc3)C(=O)O)cc2)cc1 (centres undefined) ?
Reply text: 7.59

Inquiry: Also CO[C@H](C#Cc1ccccc1)C(NS(=O)(=O)c1ccc(-c2ccc(SC)cc2)cc1)C(=O)O (some centres undefined) ?
Reply text: 8.10

Inquiry: Also COc1ccc(-c2ccc(S(=O)(=O)NC(CC#Cc3ccccc3)C(=O)O)cc2)cc1 (centres undefined) ?
Reply text: 7.92

Inquiry: Also COCC#CCC(NS(=O)(=O)c1ccc(NC(=O)c2ccc(OC)cc2)cc1)C(=O)O (centres undefined) ?
Reply text: 8.10

Inquiry: Also O=C(O)C(CC#Cc1ccccc1)NS(=O)(=O)c1ccc(/N=N/c2ccccc2)cc1 (centres undefined) ?
Reply text: 7.06

Inquiry: Also COc1ccc(-c2ccc(S(=O)(=O)NC(CC#CCc3ccccc3)C(=O)O)cc2)cc1 (centres undefined) ?
Reply text: 7.48

* * *

# assayComment: Bioavailability in rat (fasted) using cassette dosing
# Format: ADME, organism-based
# condition: in vivo
quantityName: bioavailability

>  <compound>
COc1ccc(-c2ccc(S(=O)(=O)NC(CC#Cc3ccccc3)C(=O)O)cc2)cc1 (centres undefined)

>  <bioavailability>
49%

$$$$
>  <compound>
COc1ccc(C#Cc2ccc(S(=O)(=O)NC(CC#CCN3CCOCC3)C(=O)O)cc2)cc1 (centres undefined)

>  <bioavailability>
12%

$$$$

Inquiry: What value of measured bioavailability is listed for COc1ccc(C#Cc2ccc(S(=O)(=O)NC(CC#Cc3ccccc3)C(=O)O)cc2)cc1 (centres undefined) ?
Reply text: 26%

Inquiry: Also COc1ccc(-c2ccc(S(=O)(=O)NC(CC#Cc3cccc(N4CCOCC4)c3)C(=O)O)cc2)cc1 (centres undefined) ?
Reply text: 7%

* * *

pIC50 by entry:
# system: Interstitial collagenase (Homo sapiens, UniProt P03956)
# Sequence (P03956 whole entry): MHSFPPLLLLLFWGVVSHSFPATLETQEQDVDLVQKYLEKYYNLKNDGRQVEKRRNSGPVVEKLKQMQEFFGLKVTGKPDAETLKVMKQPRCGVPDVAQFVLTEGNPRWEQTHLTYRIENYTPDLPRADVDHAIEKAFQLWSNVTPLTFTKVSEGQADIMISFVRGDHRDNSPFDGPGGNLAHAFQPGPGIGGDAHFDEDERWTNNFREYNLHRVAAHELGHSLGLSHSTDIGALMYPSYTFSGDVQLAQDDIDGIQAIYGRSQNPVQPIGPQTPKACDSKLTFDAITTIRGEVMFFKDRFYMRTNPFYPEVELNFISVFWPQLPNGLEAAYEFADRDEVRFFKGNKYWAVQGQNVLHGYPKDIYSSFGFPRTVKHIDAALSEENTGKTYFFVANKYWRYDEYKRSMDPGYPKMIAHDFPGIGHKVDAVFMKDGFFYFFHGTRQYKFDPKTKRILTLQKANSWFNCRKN
Scale explanation: pIC50 corresponds to minus log10 of a concentration expressed in moles per litre.

>  <compound>
O=C(O)C(CC#Cc1ccccc1)NS(=O)(=O)c1ccc(-c2ccc(F)cc2)cc1 (centres undefined)

>  <system>
Interstitial collagenase (Homo sapiens, UniProt P03956)

>  <pIC50>
5.25

$$$$
>  <compound>
CSc1ccc(-c2ccc(S(=O)(=O)NC(CC#CCN3CCOCC3)C(=O)O)cc2)cc1 (centres undefined)

>  <system>
Interstitial collagenase (Homo sapiens, UniProt P03956)

>  <pIC50>
4.94

$$$$
>  <compound>
COc1ccc(-c2ccc(S(=O)(=O)NC(CC#Cc3ccccc3)C(=O)O)cc2)cc1 (centres undefined)

>  <system>
Interstitial collagenase (Homo sapiens, UniProt P03956)

>  <pIC50>
5.70

$$$$
>  <compound>
CSc1ccc(-c2ccc(S(=O)(=O)NC(CC#Cc3ccccc3)C(=O)O)cc2)cc1 (centres undefined)

>  <system>
Interstitial collagenase (Homo sapiens, UniProt P03956)

>  <pIC50>
6.20

$$$$

Inquiry: Param readout = pIC50; param system = Interstitial collagenase (Homo sapiens, UniProt P03956); param query = COc1ccc(-c2ccc(S(=O)(=O)NC(CC#CCN3CCOCC3)C(=O)O)cc2)cc1 (centres undefined) ; response: value
Reply text: 4.86

* * *

# system: Collagenase 3 (Homo sapiens, UniProt P45452)
# assayComment: Inhibition of human matrix metalloprotease-13 at pH 7.4
quantityName: pIC50
Scale explanation: pIC50 corresponds to minus log10 of a concentration expressed in moles per litre.

Inquiry: What value of measured pIC50 is listed for COc1ccc(C#Cc2ccc(S(=O)(=O)NC(CC#Cc3ccccc3)C(=O)O)s2)cc1 (stereo unspecified) ?
Reply text: 6.84

* * *

# assayComment: Solubility was determined at a pH of […]
# Assay type: physicochemical
# condition: pH 7
solubility by entry:
Number in µg/mL, nothing else.

Example molecules with recorded solubility:
>  <molecule>
COc1ccc(-c2ccc(S(=O)(=O)NC(CC#Cc3ccccc3)C(=O)O)cc2)cc1 (stereo not drawn)

>  <solubility [µg/mL]>
20

$$$$
>  <molecule>
O=C(Nc1ccc(S(=O)(=O)NC(CC#CCOc2ccccc2)C(=O)O)cc1)c1ccc(Br)cc1 (stereo not drawn)

>  <solubility [µg/mL]>
50

$$$$
>  <molecule>
COCC#CCC(NS(=O)(=O)c1ccc(-c2ccc(Br)cc2)cc1)C(=O)O (stereo not drawn)

>  <solubility [µg/mL]>
12000

$$$$

Inquiry: What value of measured solubility is listed for COc1ccc(C#Cc2ccc(S(=O)(=O)NC(CC#CCN3CCOCC3)C(=O)O)cc2)cc1 (stereo not drawn) ?
Reply text: 151000

Inquiry: Also COc1ccc(-c2ccc(S(=O)(=O)NC(CC#Cc3ccccc3)C(=O)O)s2)cc1 (stereo not drawn) ?
Reply text: 30

* * *

pIC50 by entry:
# system: UniProtKB P45452
# assayComment: Inhibitory activity against human matrix metalloprotease-13 in quenched fluorescence assay at pH 7.4
Scale explanation: pIC50 corresponds to minus log10 of a concentration expressed in moles per litre.

>  <molecule>
COCC#CCC(NS(=O)(=O)c1ccc(-c2ccc(Br)cc2)cc1)C(=O)O (stereo unspecified)

>  <recordedMeasurement>
6.83

$$$$
>  <molecule>
CCCCOc1ccc(S(=O)(=O)NC(CC#Cc2ccccc2)C(=O)O)cc1 (stereo unspecified)

>  <recordedMeasurement>
5.69

$$$$
>  <molecule>
O=C(O)C(CC#Cc1ccccc1)NS(=O)(=O)c1ccc(-c2ccc(F)cc2)cc1 (stereo unspecified)

>  <recordedMeasurement>
6.64

$$$$
>  <molecule>
CO[C@H](C#Cc1ccccc1)C(NS(=O)(=O)c1ccc(-c2ccc(SC)cc2)cc1)C(=O)O (stereo partly specified)

>  <recordedMeasurement>
7.48

$$$$
>  <molecule>
Cc1ccc(C#Cc2ccc(S(=O)(=O)NC(CC#Cc3ccccc3)C(=O)O)cc2)cc1 (stereo unspecified)

>  <recordedMeasurement>
7.05

$$$$

Inquiry: Param readout = pIC50; param system = UniProtKB P45452; param query = COCC#CCC(NS(=O)(=O)c1ccc(-c2ccc(OC)cc2)cc1)C(=O)O (stereo unspecified) ; response: value
Reply text: 7.12

Inquiry: Also COc1ccc(-c2ccc(S(=O)(=O)NC(CC#CCc3ccccc3)C(=O)O)cc2)cc1 (stereo unspecified) ?
Reply text: 7.66

Inquiry: Also COCC#CCC(NS(=O)(=O)c1ccc(NC(=O)c2ccc(Br)cc2)cc1)C(=O)O (stereo unspecified) ?
Reply text: 6.57
